Data provenance is patent US20250268826A1.

- test_description: LNP size and polydispersity index (PDI) by dynamic light scattering (DLS)
- Assay type: physicochemical
- reported_conditions: Table 8; LNP 50:10:38.5:1.5 mol %; hEPO mRNA; N:P 6
Think of 0.2 as a floor: if PDI stands on it or above, it is criterion met; beneath it, criterion not met.

compound: CCCCCCCCC(CCCCCC)C(=O)OCCN(CCOC(=O)C(CCCCCC)CCCCCCCC)C(=O)C(C)CNCCC.Cl (centres unmarked)
label_class: criterion not met
//
compound: CCCCCCCCC(CCCCCC)C(=O)OCCN(CCOC(=O)C(CCCCCC)CCCCCCCC)C(=O)CCNC.Cl (centres unmarked)
label_class: criterion not met
//
compound: CCCCCCCC(CCCCCCC)C(=O)OCCN(CCOC(=O)C(CCCCCCC)CCCCCCC)C(=O)CCCN(C)C
label_class: criterion not met
//
compound: CCCCCCCCC(CCCCCC)C(=O)OCCN(CCOC(=O)C(CCCCCC)CCCCCCCC)C(=O)CC(C)NCCC.Cl (centres unmarked)
label_class: criterion not met
//
compound: CCCCCCCCC(CCCCCC)C(=O)OCCN(CCOC(=O)C(CCCCCC)CCCCCCCC)C(=O)CCCN(CC)CC.Cl (centres unmarked)
label_class: criterion not met
//
compound: CCCCCCCCC(CCCCCC)C(=O)OCCN(CCOC(=O)C(CCCCCC)CCCCCCCC)C(=O)C(C)CNC.Cl (centres unmarked)
label_class: criterion not met
//
compound: CCCCCCCCC(CCCCCC)C(=O)OCCN(CCOC(=O)C(CCCCCC)CCCCCCCC)C(=O)CCCN(C)CCO.Cl (centres unmarked)
label_class: criterion not met
//
compound: CCCCCCCCC(CCCCCC)C(=O)OCCN(CCOC(=O)C(CCCCCC)CCCCCCCC)C(=O)CCCN1CCCC1.Cl (centres unmarked)
label_class: criterion not met
//
compound: CCCCCCCCC(CCCCCC)C(=O)OCCN(CCOC(=O)C(CCCCCC)CCCCCCCC)C(=O)CCCN(C)CC.Cl (centres unmarked)
label_class: criterion not met
//
compound: CCCCCCCCC(CCCCCC)C(=O)OCCN(CCOC(=O)C(CCCCCC)CCCCCCCC)C(=O)CCCNCC.Cl (centres unmarked)
label_class: criterion not met
//
compound: CCCCCCCCCC(CCCCCCCC)C(=O)OCCN(CCOC(=O)C(CCCCCCCC)CCCCCCCCC)C(=O)CCCN(C)C.Cl (centres unmarked)
label_class: criterion met
//
compound: CCCCCCCCC(CCCCCC)C(=O)OCCN(CCOC(=O)C(CCCCCC)CCCCCCCC)C(=O)CCCN(C)CCC.Cl (centres unmarked) [Compound 939]
label_class: criterion not met
//
compound: CCCCCCCCC(CCCCCC)C(=O)OCCN(CCOC(=O)C(CCCCCC)CCCCCCCC)C(=O)CCCN(CC)CCC.Cl (centres unmarked)
label_class: criterion not met
//
compound: CCCCCCCCC(CCCCCC)C(=O)OCCN(CCOC(=O)C(CCCCCC)CCCCCCCC)C(=O)CCCN(C)C (centres unmarked)
label_class: criterion not met
//
compound: CCCCCCCCC(CCCCCC)C(=O)OCCN(CCOC(=O)C(CCCCCC)CCCCCCCC)C(=O)C(C)CNCC.Cl (centres unmarked)
label_class: criterion not met
//
compound: CCCCCCCCC(CCCCCC)C(=O)OCCN(CCOC(=O)C(CCCCCC)CCCCCCCC)C(=O)CCCN(C)CCC.Cl (centres unmarked) [Compound 938]
label_class: criterion met
//
compound: CCCCCCCCC(CCCCCC)C(=O)OCCN(CCOC(=O)C(CCCCCC)CCCCCCCC)C(=O)CCCN1CCCCC1.Cl (centres unmarked)
label_class: criterion not met
//
compound: CCCCCCCCCCCOC(=O)CCCCCN(CCO)CCCCCCCC(=O)OC(CCCCCCCC)CCCCCCCC [SM-102, reference compound]
label_class: criterion not met
//
compound: CCCCCCCCC(CCCCCC)C(=O)OCCN(CCOC(=O)C(CCCCCC)CCCCCCCC)C(=O)CCNCCC.Cl (centres unmarked)
label_class: criterion met

====

- test_description: LNP size and polydispersity index (PDI) by dynamic light scattering (DLS)
- Format: physicochemical
- reported_conditions: Table 5; LNP 50:10:38.5:1.5 mol %; hEPO mRNA; N:P 6
Lab note: class by PDI, see Low (below 0.2), Mid (0.2 to below 0.3), High (0.3 or more)

molecule: CCCCCCCCCC(CCCCCCCCC)C(=O)OCCN(CCOC(=O)C(CCCCCCCCC)CCCCCCCCC)C(=O)C(N)Cc1ccccc1 (stereo not drawn) [Compound 621]
label_class: High
//
molecule: CCCCCCCCC(CCCCCC)C(=O)OCCN(CCOC(=O)C(CCCCCC)CCCCCCCC)C(=O)CN (stereo not drawn) [Compound 105]
label_class: Low
//
molecule: CCCCCCCCC(CC)C(=O)OCCN(CCOC(=O)C(CC)CCCCCCCC)C(=O)C(N)Cc1ccccc1 (stereo not drawn) [Compound 617]
label_class: High
//
molecule: CCCCCCCCCCC(CCCC)C(=O)OCCN(CCOC(=O)C(CCCC)CCCCCCCCCC)C(=O)C(N)Cc1ccccc1 (stereo not drawn) [Compound 619]
label_class: Low
//
molecule: CCCCCCCCCCCCC(CC)C(=O)OCCN(CCOC(=O)C(CC)CCCCCCCCCCCC)C(=O)CN (stereo not drawn) [Compound 606]
label_class: High
//
molecule: CCCCCCC(CCCC)C(=O)OCCN(CCOC(=O)C(CCCC)CCCCCC)C(=O)CN (stereo not drawn) [Compound 602]
label_class: High
//
molecule: CCCCCCCCCC(CCCCCCCCC)C(=O)OCCN(CCOC(=O)C(CCCCCCCCC)CCCCCCCCC)C(=O)C(C)N (stereo not drawn) [Compound 614]
label_class: High
//
molecule: CCCCCC(CCCCC)C(=O)OCCN(CCOC(=O)C(CCCCC)CCCCC)C(=O)C(C)N (stereo not drawn) [Compound 608]
label_class: Low
//
molecule: CCCCCC(CCCCC)C(=O)OCCN(CCOC(=O)C(CCCCC)CCCCC)C(=O)C(N)Cc1ccccc1 (stereo not drawn) [Compound 615]
label_class: High
//
molecule: CCCCCCCCCCCCC(CC)C(=O)OCCN(CCOC(=O)C(CC)CCCCCCCCCCCC)C(=O)C(N)Cc1ccccc1 (stereo not drawn) [Compound 620]
label_class: Mid
//
molecule: CCCCCCCCC(CCCCCC)C(=O)OCCN(CCOC(=O)C(CCCCCC)CCCCCCCC)C(=O)CNCCO (stereo not drawn) [Compound 305]
label_class: Low
//
molecule: CCCCCCCC(CCCCCCC)C(=O)OCCN(CCOC(=O)C(CCCCCCC)CCCCCCC)C(=O)C(C)N (stereo not drawn) [Compound 611]
label_class: Mid
//
molecule: CCCCCC(CCCCC)C(=O)OCCN(CCOC(=O)C(CCCCC)CCCCC)C(=O)CN [Compound 601]
label_class: Low

====

- test_description: LNP Zeta potential measured using a Zetasizer (Malvern)
- Assay type: physicochemical
- reported_conditions: Table 9; LNP 50:10:38.5:1.5 mol %; hEPO mRNA; N:P 6
Below, each entry is listed alongside its reported Zeta potential.

compound: CCCCCCCCC(CCCCCC)C(=O)OCCN(CCOC(=O)C(CCCCCC)CCCCCCCC)C(=O)CN(CC)CCC.Cl (single isomer, unassigned) [Compound 960a]
Zeta potential / mV: −28.49
--
compound: CCCCCCCCC(CCCCCC)C(=O)OCCN(CCOC(=O)C(CCCCCC)CCCCCCCC)C(=O)CN(CC)CC.Cl (stereo not drawn) [Compound 967]
Zeta potential / mV: −21.99
--
compound: CCCCCCCCC(CCCCCC)C(=O)OCCN(CCOC(=O)C(CCCCCC)CCCCCCCC)C(=O)CN1CCCC1.Cl (stereo not drawn) [Compound 960c]
Zeta potential / mV: −20.89

====

- test_description: LNP size and polydispersity index (PDI) by dynamic light scattering (DLS)
- Type: physicochemical
- reported_conditions: Table 10; LNP with hEPO mRNA, Lipid:DSPC:Cholesterol:DMG-PEG2k 50:10:38.5:1.5 mol %, N:P ratio 6; DLS
result_type: PDI

molecule: CCCCCCCC/C=C\CCCCCCCC(=O)OCCN(CCOC(=O)C(CCCCCC)CCCCCCCC)C(=O)CCN1CCCCC1 (stereo not drawn) [Compound 917h]
result_type: PDI
numeric_readout: 0.137
--
molecule: CCCCCCCCCC(CCCCCCCCC)C(=O)OCCN(CCOC(=O)C(CCCCCCCCC)CCCCCCCCC)C(=O)CCN(C)CCC [Compound 917g]
result_type: PDI
numeric_readout: 0.281
--
molecule: CCCCCCCCC(CCCCCC)C(=O)OCCCCCCN(CCCCO)CCCCCCOC(=O)C(CCCCCC)CCCCCCCC (stereo not drawn) [ALC-0315, reference compound]
result_type: PDI
numeric_readout: 0.295
--
molecule: CCCCCCCCC(CCCCCC)C(=O)OCCN(CCOC(=O)CCCCCCC(C)C)C(=O)CCN(CC)CC (stereo not drawn) [Compound 917d]
result_type: PDI
numeric_readout: 0.096
--
molecule: CCCCCCCCCCCOC(=O)CCCCCN(CCO)CCCCCCCC(=O)OC(CCCCCCCC)CCCCCCCC [SM-102, reference compound]
result_type: PDI
numeric_readout: 0.272
--
molecule: CCCCCCCC/C=C\CCCCCCCC(=O)OCCN(CCOC(=O)C(CCCCCC)CCCCCCCC)C(=O)CCN(CC)CC (stereo not drawn) [Compound 917a]
result_type: PDI
numeric_readout: 0.124
--
molecule: CC/C=C\CCCCC(=O)OCCN(CCOC(=O)C(CCCCCC)CCCCCCCC)C(=O)CCN(CC)CC (stereo not drawn) [Compound 917c]
result_type: PDI
numeric_readout: 0.122
--
molecule: CCCCCCCCCC(CCCCCCCCC)C(=O)OCCN(CCOC(=O)C(CCCCCCCCC)CCCCCCCCC)C(=O)CCN(CC)CC [Compound 917f]
result_type: PDI
numeric_readout: 0.314
--
molecule: CCCCCCCCCC(CCCCCCCCC)C(=O)OCCN(CCOC(=O)C(CCCCCCCCC)CCCCCCCCC)C(=O)CCN(C)CC [Compound 917e]
result_type: PDI
numeric_readout: 0.222
